test-system: Alpha-bungarotoxin (Bungarus multicinctus)
method: compounds binding labelled alpha-BTX control protein – biochemical, small-molecule microarray, Alexa647 label, 635/667 nm fluorescence, artefact control for SMM control protein annotation, profiling panel (AID 1117)
condition-notes: alpha-BTX-A647 binding fluorescence, higher = more signal
experimental-readout: composite z-score
Numbers only.

Example entries begin here.
molecule	composite z-score
COc1ccc([Si](C)(C)[C@@H]2[C@@H](CCO)O[C@]3(C(=O)N(Cc4ccccc4)c4ccc(N5CCOC5=O)cc43)[C@H]2C)cc1	1.09
O=C(NCc1ccc(F)cc1)[C@H]1C[C@H]2C(=O)NCC(=O)N2[C@H]1c1ccc(O)cc1	-0.144
C=CCNC(=O)[C@@H]1[C@H]2C(=O)O[C@H](c3ccccc3)[C@H](c3ccccc3)N2[C@H](c2ccccc2OCCO)[C@@]12C(=O)Nc1ccc(C#CCC(C(=O)OC)C(=O)OC)cc12	0.894

Please look at the items below and tell me composite z-score for each one, in order.
1. CC(C)=C1C(=O)C(c2ccccc2)=C2CN3C(=O)N(CCc4ccccc4)C(=O)[C@]3(Cc3ccc(C(F)(F)F)cc3)[C@H]21
2. C=CCNC(=O)[C@@H]1[C@H]2C(=O)O[C@H](c3ccccc3)[C@H](c3ccccc3)N2[C@H](c2ccc(O)cc2)[C@@]12C(=O)N(C(=O)OCCOC)c1ccc(C#CC3=CCCCC3)cc12

Key:
1. 0.716
2. 0.662

So for [N-]=[N+]=NCc1ccccc1[C@H]1OC(c2ccc(OCCCO)cc2)=N[C@@]1(Cc1ccccc1N=[N+]=[N-])C(=O)NCC(O)CO (stereo partly specified) , the logged composite z-score turned out to be 1.08

----------
test-system: Concanavalin-A (Canavalia ensiformis) (UniProt P02866)
Sequence (P02866 whole entry, looked up): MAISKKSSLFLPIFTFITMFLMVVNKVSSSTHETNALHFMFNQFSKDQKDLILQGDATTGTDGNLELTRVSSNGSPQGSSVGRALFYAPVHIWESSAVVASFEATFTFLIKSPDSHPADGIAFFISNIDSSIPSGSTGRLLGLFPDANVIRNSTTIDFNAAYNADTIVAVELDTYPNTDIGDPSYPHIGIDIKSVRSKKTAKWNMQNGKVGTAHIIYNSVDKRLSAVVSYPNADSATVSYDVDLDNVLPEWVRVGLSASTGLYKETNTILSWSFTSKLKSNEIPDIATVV
method: compounds binding concanavalin A lectin – biochemical, small-molecule microarray, Alexa647 label, 635 nm, artefact control for SMM control protein annotation, primary screen (AID 1127);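 further: z combines 667 nm emission intensity with signal-to-noise across three replicate slides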
condition-notes: ConA-A647 binding fluorescence, higher = more signal
Consider the following compounds; for each one, report its composite z-score.
Answers are plain numbers.

Example entries begin here.
compound	assay-result
C=C[C@@H](CO)N(Cc1ccc(OC)cc1)S(=O)(=O)c1ccc(Br)cc1	0.241
COCC(=C=CC[C@H](O)c1ccc(CO)o1)CCO	0.494
COC(=O)c1c(CC[C@@H](CO)NC(=O)N2CCC[C@H]2Cn2cc(C3(O)CCCCC3)nn2)oc(C(C)=O)c1C(=O)OC	1.04
CC(CO)N1C(=O)[C@]2(C)C3C(=O)OCCC/C=C\[C@H]3OC23C=CCN(c2ccc(Cl)cc2)C(=O)[C@@H]13 (stereo not given in full)	-0.474
CC(C)N1CC=CC23O[C@@H]4C=CCCOC(=O)C4[C@H]2C(=O)N(CCCO)[C@@H]3C1=O (stereo not given in full)	-0.0639
CCOC(=O)C1=C[C@@H](c2ccccc2)N(S(=O)(=O)c2ccc(C)cc2)[C@H]1c1ccc(OC)cc1	1.1
C=CCN1Cc2ccccc2[C@@H]2OC(c3ccc(OCCCO)cc3)=N[C@]2(CC=C)C1=O	1.1
COc1ccccc1CN1C(=O)c2ccccc2[C@](Cc2ccccc2I)(C(=O)O)[C@@H]1c1ccc(CO)cc1	1.18

Please look at the items below and tell me composite z-score for each one, in order.
1. NCCCCCNC(=O)[C@H]1C[C@H]2C(=O)N3CCC[C@H]3C(=O)N2[C@H]1c1cccc(OCCO)c1
2. C=CCC(OC(C)=O)[C@@H]1[C@@H](N(Cc2ccc(-c3ccccc3)cc2)C(=O)c2ccc(-c3ccccc3)cc2)c2cc(OCCCO)ccc2N1C(=O)c1ccc2ccccc2c1 (stereo not given in full)

Key:
1. 0.894
2. -0.38

Please look at the items below and tell me composite z-score for each one, in order.
1. CCN(CC)c1ccc(N2CC=CC34O[C@@H]5/C=C\CCCOC(=O)C5[C@H]3C(=O)N(C(C)CO)[C@@H]4C2=O)cc1 (stereo not given in full)
2. COC(=O)[C@@]1(Cc2ccc(OC)cc2)[C@H]2c3cc(C(=O)N(C)C)n(Cc4ccc(OC(F)(F)F)cc4)c3C[C@H]2CN1C(=O)c1ccccc1
3. O=C1CS(=O)(=O)C(c2cccc([N+](=O)[O-])c2)N1c1ccccc1 (stereo not given)
4. CCOC(=O)C[C@H]1[C@H](OC(=O)Cc2ccc3c(c2)OCO3)[C@@H](NC(=O)c2ccc3ccccc3n2)c2cc(OCCCO)ccc2N1C(=O)c1ccc2ccccc2n1

Key:
1. -0.529
2. -0.467
3. 0.353
4. 1.07

So for COCCOC(=O)N1C(=O)[C@@]2(c3cc(C#CCCO)ccc31)[C@H](C(=O)Nc1nc3ccccc3s1)[C@H]1C(=O)O[C@H](c3ccccc3)[C@H](c3ccccc3)N1[C@@H]2c1ccc(O)cc1 , the logged composite z-score turned out to be 1.17

----------
test-system: Fibroblast growth factor 10 (Homo sapiens) (UniProt O15520)
Sequence (O15520 whole entry, looked up): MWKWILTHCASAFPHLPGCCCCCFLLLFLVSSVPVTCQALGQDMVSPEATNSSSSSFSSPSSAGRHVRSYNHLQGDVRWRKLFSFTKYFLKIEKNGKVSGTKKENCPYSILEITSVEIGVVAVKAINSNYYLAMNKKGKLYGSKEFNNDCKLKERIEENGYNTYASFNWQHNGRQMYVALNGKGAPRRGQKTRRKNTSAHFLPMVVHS
method: compounds binding fibroblast growth factor 10 – biochemical, small-molecule microarray, 635 nm fluorescence, primary screen (AID 1102)
condition-notes: FGF10 binding, fluorescence 635 nm, higher = more signal
experimental-readout: composite z-score
Numbers only.

Example entries begin here.
compound	assay-result
COc1ccc(CCNC(=O)[C@@]2(Sc3ccc(C)cc3)CC(=O)N(Cc3ccccc3C(F)(F)F)[C@@H]2c2ccc(CO)cc2I)cc1	-1.06
CCCCCN1CC=CC23O[C@@H]4/C=C\CCC(C)OC(=O)C4[C@H]2C(=O)N(C(CO)C(C)C)[C@@H]3C1=O (stereo partly drawn)	0.0694
CN(C)C(=O)[C@]1(CCC(=O)OC(C)(C)C)N=C(c2ccc(OCCCO)cc2)O[C@@H]1c1ccccc1CN=[N+]=[N-]	0.518
COc1ccc(CCNC(=O)[C@@]2(c3ccc([N+](=O)[O-])cc3)CC(=O)N(C3CCCCC3)[C@@H]2c2ccc(CO)cc2)cc1	0.525
COCCOC(=O)N1C(=O)[C@@]2(c3cc(C#CCC(C(=O)OC)C(=O)OC)ccc31)[C@H](c1ccc(OCCO)cc1)N1[C@H](c3ccccc3)[C@H](c3ccccc3)OC(=O)[C@H]1[C@@H]2C(=O)N1CCc2cc(OC)c(OC)cc2C1	1.4

Please look at the items below and tell me composite z-score for each one, in order.
1. CCOC(=O)C[C@H]1[C@H](OC(=O)c2cc3ccccc3oc2=O)[C@@H](NC(=O)c2ccc3ccccc3n2)c2cc(OCCCO)ccc2N1C(=O)Cc1ccc(OC)cc1
2. COc1ccc(C#Cc2ccc3c(c2)[C@]2(C(=O)N3)[C@H](c3ccc(O)cc3)N3[C@H](c4ccccc4)[C@H](c4ccccc4)OC(=O)[C@H]3[C@@H]2C(=O)Nc2nc3ccccc3s2)cc1
3. COc1ccc([Si](C)(C)[C@H]2[C@H](CC(=O)N3Cc4ccccc4C[C@H]3CO)O[C@@]3(C(=O)N(Cc4ccc(N5CCOC5=O)cc4)c4ccccc43)[C@@H]2C)cc1

Key:
[1.01, 1.28, 0.878]

Please look at the items below and tell me composite z-score for each one, in order.
1. C=CCC(OC(C)=O)[C@@H]1[C@@H](N(Cc2cc3ccccc3o2)C(=O)Cc2ccc(F)cc2)c2cc(OCCCO)ccc2N1C(=O)Cc1ccc2ccccc2c1 (stereo partly drawn)
2. CN(C)C(=O)[C@@]1(Cc2ccccc2)N=C(c2ccc(OCCCO)cc2)O[C@H]1c1ccccc1
3. COc1cc(NN2C(C(O)c3cc(OC)c(OC)c(OC)c3)C=CC3C(=O)N(C)C(=O)C32)cc(OC)c1OC (stereo not drawn)
4. C=CCNC(=O)[C@@H]1[C@H]2C(=O)O[C@H](c3ccccc3)[C@H](c3ccccc3)N2[C@H](c2ccc(OCCO)cc2)[C@@]12C(=O)N(C(=O)OCCOC)c1ccc(C#Cc3ccc(OC)cc3)cc12
5. N#Cc1ccc(NN2C(C(O)c3ccc(Br)cc3)C=CC3C(=O)N(c4ccccc4)C(=O)C32)cc1 (stereo not drawn)

Key:
-0.108
1.2
0.691
0.753
0.65

----------
Test system: Noggin (protein binding on small-molecule microarray)
method: small molecules binding Noggin protein – biochemical, 635/667 nm fluorescence, primary screen (AID 1095);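 further: score merges 667 nm feature fluorescence with signal to noise over triplicate slides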
condition-notes: 635 nm fluorescence, higher = more signal
experimental-readout: composite z-score
One number for each entry.

Example entries begin here.
>>> print(df.to_string())
                                   compound                               test_system  assay_result
0  CC(C)N1C(=O)C[C@@](C(=O)NC2CC2)(c2ccc([N+](=O)[O-])cc2)[C@H]1c1ccc(CO)cc1  Noggin (protein binding on small-molecule microarray)         -1.15
1  C=C[C@H](C)[C@H](OC(=O)Nc1ccc(SC)cc1)c1ccc(OCCO)cc1  Noggin (protein binding on small-molecule microarray)         0.415
2  Cc1cc(C)c(C(O)C2C=CC3C(=O)N(c4ccccc4)C(=O)C3N2Nc2ccccc2F)c(C)c1 (stereo not given)  Noggin (protein binding on small-molecule microarray)         -0.73
3  O[C@@H](Cc1ccccc1)[C@@H](/C=C/C1CC1)N(CC#Cc1ccccc1)Cc1ccccc1Br  Noggin (protein binding on small-molecule microarray)         -1.33

# evaluate next
Measured composite z-score for this entry CC[C@@H]1C=C(C(=O)O)[C@H](c2ccccc2)N1S(=O)(=O)c1ccc(C)cc1 on Noggin (protein binding on small-molecule microarray): 0.103
